growth inhibition listing for selected compounds.
assay-overview: NCI Yeast Anticancer Drug Screen. Data for the rad50 strain (AID 155);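 note: 0% = growth of vehicle-only cultures of the same strain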
experimental-context: S. cerevisiae rad50 strain growth inhibition; at 50.0 µM; active compounds read high
About 79,000 compounds went through this panel and 15% of them were active in at least one assay; those are over-represented in the sample as a whole.
Number in %, nothing else.

Which value of growth inhibition has been reported for COC(=O)C1(c2ccccc2)Cc2ccccc2-c2ccccc21 (configuration not stated) in the records? -24.1

###

assay-overview: NCI Yeast Anticancer Drug Screen. Data for the mec2-1 strain (AID 157)
experimental-context: S. cerevisiae mec2-1 strain, at 50.0 µM, active compounds read high
Description: Growth inhibition of yeast strains with defined genetic alterations is measured as a screen for potential anti-cancer activity. Selected strains with alterations in DNA damage repair or cell cycle control were exposed to compounds and growth inhibition was measured relative to vehicle treated controls. The strain used in this assay is mec2-1
The panel holds about 79,000 compounds, 15% with a hit somewhere; the sample as a whole holds those more often.
Reported growth inhibition by item:
// units = %; emit number, no label

Returns the measured growth inhibition for the input molecule. Input: CS(=O)(=O)OCCCCCCCCCCCC1C=CCC1 (centres undefined) -32.4

###

assay-overview: NCI Yeast Anticancer Drug Screen. Data for the rad50 strain (AID 155);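 note: 0% = growth of vehicle-only cultures of the same strain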
experimental-context: S. cerevisiae rad50 strain growth inhibition; at 50.0 µM; active compounds read high
Compounds without any hit were thinned out: in the full panel of roughly 79,000, 15% have a hit.
assay-metric: growth inhibition (%)
// return numeric value only (unit: %, not printed)

Please review the following examples before continuing.
1. COc1ccc(/C=N/NC(=O)c2ccc(N)cc2)cc1 ... -1.65
2. Cc1cccc(C)c1NC(=O)Nc1cccc(Cl)c1 ... 6.3
3. CCc1cc2c(c3c1CCC3=O)CC1(Cc3ccc(C)cc3C1)C2 (stereo not drawn) ... -47.1
4. O=C(NC1(C(=O)O)CCCC1)C(F)(F)F ... -13.8

I'd like to know its growth inhibition. The molecule in question is `CCCOS(=O)(=O)O` -13.7

If you can, please state the reported growth inhibition value of O=C(CN1C(=O)c2ccccc2C1=O)NC(Cc1ccccc1)C(=O)O (stereo not drawn) . 7.85

So what does the record say about growth inhibition for `CCCCCCCCCCCCCCS(=O)(=O)CCCl` ? -5.85

Name the reported growth inhibition value associated with the molecule `CN(C)c1ccc(C(=O)O)cc1` -0.75

Item under review: `Cc1cc(N(CCC#N)CCC#N)ccc1/C=C(\NC(=O)/C=C/c1ccccc1)C(N)=O` . Reported growth inhibition? 3.15

Recorded growth inhibition for `CC(C)c1cc(C(C)C)c(B(c2ccccc2)c2ccccc2)c(C(C)C)c1B(c1ccccc1)c1ccccc1` , please? -13.7

Sample COC(=S)OC1CC(n2cnc3c(N)ncnc32)OC1CO[Si](C)(C)C(C)(C)C (stereo not drawn) — what was its growth inhibition? -10.2

What does the record list as growth inhibition for FC(F)(F)C1(C(F)(F)F)C2CCC3(CC(F)(F)C(F)(F)S3)C1C2 (stereo not drawn) ? -1.05

Tell me the measured growth inhibition of O=C1C(=O)C(CCc2ccccc2)C(=O)/C1=C\c1ccccc1 (stereo not drawn) , please. 4.4

Consider the molecule shown here: `O=S(=O)(NCCBr)c1ccccc1` What is its recorded growth inhibition? -1.5

###

assay-overview: NCI Yeast Anticancer Drug Screen. Data for the cln2 rad14 strain (AID 165);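 note: 0% = growth equal to vehicle treated cultures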
experimental-context: S. cerevisiae cln2 rad14 strain, at 50.0 µM, active compounds read high
This is part of a sample that, as a whole, favours compounds with a hit. Of some 79,000 tested, about 15% had one in any assay.
assay-metric: growth inhibition (%)
Just the number in %, nothing appended.

Sample records with growth inhibition:
1) CC(C)CC(CC(C)C)OC(=O)Nc1ccccc1 ... 33.6
2) CC(=O)OCC(=O)C1(O)CCC2C3CCC4CC(=O)CCC4(C)C3C(=O)CC21C (stereo unspecified) ... 20.2
3) N#Cc1c(O)c(N=Nc2ccccc2F)c(=O)n2c1[nH]c1ccccc12 ... 4.1
4) CN(N=O)C(=O)NC(C=O)C(O)C(O)C(O)CO (stereo unspecified) ... 12.2
5) CC(CC(C)(C)C)C(=O)O (stereo unspecified) ... 1.2
6) COc1cc2c(cc1OC)C1(CCBr)C3CC4C(=CCOC5CC(=O)N2C1C54)CN3C(=O)Cc1ccccc1 (stereo unspecified) ... 7.4

// next item, growth inhibition requested
Query (compound): `CC(C)(C)C(=O)C(Cc1ccccc1)C(=O)C(C)(C)C` ; field requested: growth inhibition 16.8

###

Each entry below lists one item and its recorded growth inhibition value.
assay-overview: NCI Yeast Anticancer Drug Screen. Data for the mlh1 rad18 strain (AID 175)
experimental-context: S. cerevisiae mlh1 rad18 strain growth inhibition; at 50.0 µM; active compounds read high
Compounds without any hit were thinned out: in the full panel of roughly 79,000, 15% have a hit.
Write the answer as a number in %, unit excluded.

1. Cc1ccccc1N=Nc1c(O)n(-c2ccccc2)c(=S)n(-c2ccccc2)c1=O ... 14.4
2. O=C1ON(c2ccccc2)C(c2cccc(Cl)c2)N1c1ccccc1 (centres undefined) ... -16.1
3. [O-]c1c[n+](CCCC[n+]2cc([O-])on2)no1 ... -1.95

# query: growth inhibition of entry `Nc1ccc(S(=O)(=O)c2ccc(Nc3ccnc4cc(Cl)ccc34)cc2)cc1` 12.8

// returns reported growth inhibition for input `COc1cc(NCCC(=O)O)c2ncccc2c1` 0.7

Could you share which growth inhibition value was measured for `C/C(=N\N(c1ccccc1)c1ccccc1)c1c(O)cc(C)oc1=O` ? 14.8

###

assay-overview: NCI Yeast Anticancer Drug Screen. Data for the bub3 strain (AID 167)
experimental-context: S. cerevisiae bub3 mutant strain, at 50.0 µM, active compounds read high
Experimental: Growth inhibition of yeast strains with defined genetic alterations is measured as a screen for potential anti-cancer activity. Selected strains with alterations in DNA damage repair or cell cycle control were exposed to compounds and growth inhibition was measured relative to vehicle treated controls. The strain used in this assay is bub3
Compounds without any hit were thinned out: in the full panel of roughly 79,000, 15% have a hit.
This section presents compounds with their documented growth inhibition values.
Lab book: enter the figure in %, no units written.

Answered cases to consult:
1) CCCCOC(=O)C(C)OC(=O)COc1ccc(Cl)cc1C (stereo unspecified) ... 2.25
2) NCC(=O)N1CCCCC1 ... -2.1
3) O=c1cc(NCc2cccc([N+](=O)[O-])c2)[nH]c(=O)[nH]1 ... -5.5
4) O=C(O)C(CSC(c1ccccc1)(c1ccccc1)c1ccccc1)Nc1ccccc1[N+](=O)[O-] (stereo unspecified) ... 98.3
5) O=C(Nc1cc(Cl)c(Oc2ccc(Cl)cc2)cc1S(=O)(=O)O)Nc1cccc(Cl)c1Cl ... 98.7

Would you mind telling me what growth inhibition value was observed for `CCOC(=O)c1ccc(NC(=O)Nc2ccccc2C(=O)OC)cc1` ? 25.4

Quick one: growth inhibition of `CCN(CC)/C(C=[N+]=[N-])=N\C(N)=N\S(=O)(=O)c1ccc(OC)cc1` ? 4.05

Field request: growth inhibition | item: `COc1cc(NCCC(=O)O)c2ncccc2c1` -24.2

Suppose we examine the compound `C/C(=N\S(=O)(=O)c1ccc([N+](=O)[O-])cc1)OCC(C)C` ; what growth inhibition value has been reported? 10.7

// lookup growth inhibition for C/C=C1\CN2CCc3c([nH]c4ccccc34)C2CC1CC(=O)N(C)C (stereo unspecified) 1.6

Quick one: growth inhibition for `O=C(O)c1cc(=O)[nH]c(SCc2ccccc2)n1` ? -20.8

###

# reported growth inhibition; entries follow
assay-overview: NCI Yeast Anticancer Drug Screen. Data for the mec2-1 strain (AID 157)
experimental-context: S. cerevisiae mec2-1 strain, at 50.0 µM, active compounds read high
This is part of a sample that, as a whole, favours compounds with a hit. Of some 79,000 tested, about 15% had one in any assay.
Report as a plain number; the unit % is understood.

For orientation, consider the following solved cases.
1) CCN(CC)c1ccc2c(c1)Oc1cc(N(CC)CC)ccc1C2c1ccccc1C(=O)O ... -32.6
2) CN1C[C@H]2[C@@H](C1=O)[C@H](c1ccc([N+](=O)[O-])cc1)ON2C ... -72.5
3) CC(=O)Nc1ccc2c(c1)Cc1ccc(S(C)(=O)=O)cc1-2 ... -7.15

Quick check: growth inhibition of `COC(=O)c1nnn(-c2c(C)cccc2C(C)C)c1C(=O)c1ccccc1` ? -2.45

Given the molecule `CCc1ccc(N=Nc2c(F)c(F)c(N(C)C)c(F)c2F)cc1` , what is its reported growth inhibition? 7.7

Which growth inhibition value is on record for `O=C(O)c1cc2ccccc2c2cc3ccccc3cc12` ? 39

###

assay-overview: NCI Yeast Anticancer Drug Screen. Data for the sgs1 mgt1 strain (AID 161);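 note: 0% = growth of cultures given vehicle only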
experimental-context: S. cerevisiae sgs1 mgt1 strain, at 50.0 µM
Description: Growth inhibition of yeast strains with defined genetic alterations is measured as a screen for potential anti-cancer activity. Selected strains with alterations in DNA damage repair or cell cycle control were exposed to compounds and growth inhibition was measured relative to vehicle treated controls. The strain used in this assay is sgs1 mgt1
This is part of a sample that, as a whole, favours compounds with a hit. Of some 79,000 tested, about 15% had one in any assay. Active and inactive are the calls of the source. No stated cut-off is given here; in the data, active means growth inhibition above about 70%; inactive means the rest.
Would you mind answering with one of these outcomes? active, inactive

Below are worked cases with known answers.
1. CCOC(=O)C1=C(C)OC(C)(OC(C)=O)C1=O (stereo unspecified) ... inactive
2. COc1ccc2cc3[n+](cc2c1O)CCc1cc2c(cc1-3)OCO2 ... inactive
3. COc1ccc2c(ccc[n+]2CC(=O)c2ccc(SC)cc2)c1 ... inactive

I'd appreciate the recorded outcome for NC(=O)N/N=C(\c1ccccc1)C1CCCCc2ccccc21 (stereo unspecified) from this test. inactive

Returns: the outcome recorded for `ONc1ccc(Cl)cc1` in this assay. inactive

Which outcome did this test record for the compound `COc1cccc(C(=O)c2ccc(OC)cc2C(=O)O)c1` ? inactive

What is the recorded call for this compound in the test? CC(C)NC(=O)OCCN=C1c2ccccc2C(Br)C(Br)c2ccccc21 (stereo unspecified) inactive

Could you kindly confirm the outcome this assay logged for `COc1ccc(-c2cc3c(c4cc(OC)ccc24)C(=O)OC3=O)cc1` ? inactive

Entry N#CC(NCc1ccccc1)c1ccccc1 (stereo unspecified) : call = ? inactive

Please share the test call associated with COc1ccc2cc1Oc1ccc(cc1)CC1c3c(cc(OC)c4c3Oc3cc5c(cc3O4)CCNC5C2)CCN1C (stereo unspecified) . inactive

Per the assay record, what outcome was assigned to `CCN(CC)C(=O)c1cc([N+](=O)[O-])c(=O)n2c1[nH]c1ccccc12` ? inactive
